The origin of these recorded values is patent US20110105509A1.

targetUnderTest: CRTH2 (Homo sapiens)
Sequence (Q9Y5Y4 whole entry): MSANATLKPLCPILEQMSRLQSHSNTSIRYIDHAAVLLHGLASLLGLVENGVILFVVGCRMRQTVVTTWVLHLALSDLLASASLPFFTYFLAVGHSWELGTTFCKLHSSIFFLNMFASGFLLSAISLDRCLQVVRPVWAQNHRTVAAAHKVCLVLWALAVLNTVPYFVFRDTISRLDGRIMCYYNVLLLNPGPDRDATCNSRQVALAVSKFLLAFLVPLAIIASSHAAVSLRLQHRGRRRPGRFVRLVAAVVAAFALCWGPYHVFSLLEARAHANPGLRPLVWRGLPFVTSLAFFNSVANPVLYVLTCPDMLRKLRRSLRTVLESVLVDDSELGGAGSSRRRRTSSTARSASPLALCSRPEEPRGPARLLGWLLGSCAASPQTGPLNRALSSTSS
assayProcedure: FRET based competitive immunoassay (cAMP) in CRTH2 expressing CHO cells
experimentalConditions: CRTH2 expressing CHO cells incubated with forskolin and PGD2; Eu3+ cryptate-labeled anti-cAMP and d2-labeled cAMP
quantityKind: IC50

{"molecule": "Cc1c(Cc2ccc(=O)n(Cc3ccccc3)n2)c2cc(Cl)ccc2n1CC(=O)O", "quantityKind": "IC50", "observedResult": "16 nM"}
{"molecule": "Cc1c(-c2ccc(=O)n(Cc3ccccc3)n2)c2cc(Cl)cc(F)c2n1CC(=O)O", "quantityKind": "IC50", "observedResult": "106 nM"}
{"molecule": "Cc1c(-c2ccc(=O)n(Cc3ccc(C(C)C)cc3)n2)c2cc(Cl)ccc2n1CC(=O)O", "quantityKind": "IC50", "observedResult": "334 nM"}
{"molecule": "Cc1c(Cc2ccc(=O)n(Cc3ccc(C(F)(F)F)cc3)n2)c2cc(Cl)ccc2n1CC(=O)O", "quantityKind": "IC50", "observedResult": "23 nM"}
{"molecule": "Cc1c(-c2ccc(=O)n(C(C)C)n2)c2cc(F)ccc2n1CC(=O)O", "quantityKind": "IC50", "observedResult": "210 nM"}
{"molecule": "Cc1c(-c2nn(CC(N)=O)c(=O)c3ccccc23)c2cc(Cl)ccc2n1CC(=O)O [Example 259c]", "quantityKind": "IC50", "observedResult": "23 nM"}
{"molecule": "Cc1c(-c2nn(Cc3ccc(Cl)cc3Cl)c(=O)c3ccccc23)c2cc(Cl)ccc2n1CC(=O)O", "quantityKind": "IC50", "observedResult": "3 nM"}
{"molecule": "Cc1c(-c2nn(Cc3ccc(OC(F)(F)F)cc3)c(=O)c3ccccc23)c2cc(F)ccc2n1CC(=O)O", "quantityKind": "IC50", "observedResult": "22 nM"}

====

targetUnderTest: UniProt Q9Y5Y4
assayProcedure: FRET based competitive immunoassay (cAMP) in CRTH2 expressing CHO cells
experimentalConditions: CRTH2 expressing CHO cells incubated with forskolin and PGD2; Eu3+ cryptate-labeled anti-cAMP and d2-labeled cAMP
quantityKind: log10(IC50) (log10 of the value in nM)

{"mol": "Cc1c(-c2ccc(=O)n(Cc3ccccc3)n2)c2cc(Br)ccc2n1CC(=O)O", "observedResult": 1.48}
{"mol": "Cc1c(-c2nn(Cc3cc(F)c(F)cc3F)c(=O)c3ccccc23)c2cc(F)ccc2n1CC(=O)O", "observedResult": 1.18}
{"mol": "Cc1c(-c2nn(Cc3ccc(Cl)cc3)c(=O)c3ccccc23)c2cc(F)ccc2n1CC(=O)O", "observedResult": 0.95}
{"mol": "Cc1c(-c2nn(Cc3ccccc3)c(=O)c3ccccc23)c2cc(S(C)(=O)=O)cc(Cl)c2n1CC(=O)O", "observedResult": 2.23}
{"mol": "Cc1c(-c2nn(Cc3ccccc3)c(=O)c3ccccc23)c2cc(S(C)(=O)=O)cc(F)c2n1CC(=O)O", "observedResult": 2.33}
{"mol": "Cc1c(-c2nn(-c3ccc(C(F)(F)F)cc3)c(=O)c3ccccc23)c2cc(F)ccc2n1CC(=O)O", "observedResult": 2.51}
{"mol": "Cc1c(-c2nn(Cc3ccc(F)cc3F)c(=O)c3ccccc23)c2cc(Cl)ccc2n1CC(=O)O", "observedResult": 1.04}
{"mol": "Cc1c(Cc2ccc(=O)n(Cc3ccccc3F)n2)c2ccccc2n1CC(=O)O", "observedResult": 0.30}
{"mol": "Cc1c(-c2nn(Cc3cccc(F)c3F)c(=O)c3ccccc23)c2cc(Cl)ccc2n1CC(=O)O", "observedResult": 0.85}
{"mol": "Cc1c(-c2ccc(=O)n(C)n2)c2ccccc2n1CC(=O)O", "observedResult": 3.70}
{"mol": "Cc1c(Cc2ccc(=O)n(Cc3cccc(F)c3F)c2)c2cc(Cl)ccc2n1CC(=O)O", "observedResult": 0.95}
{"mol": "Cc1c(-c2ccc(=O)n(Cc3ccc(F)cc3)c2)c2ccccc2n1CC(=O)O", "observedResult": 1.20}
{"mol": "Cc1c(-c2ccc(=O)n(Cc3ccccc3F)n2)c2ccccc2n1CC(=O)O", "observedResult": 2.94}
{"mol": "Cc1c(-c2nn(CC(C)(C)Oc3ccccc3)c(=O)c3ccccc23)c2cc(F)ccc2n1CC(=O)O", "observedResult": 1.26}
{"mol": "Cc1c(Cc2ccc(=O)n(Cc3cccc(F)c3F)c2)c2cc(F)ccc2n1CC(=O)O", "observedResult": 1.23}

====

targetUnderTest: CRTH2 (Homo sapiens)
assayProcedure: FRET based competitive immunoassay (cAMP) in CRTH2 expressing CHO cells
experimentalConditions: CRTH2 expressing CHO cells incubated with forskolin and PGD2; Eu3+ cryptate-labeled anti-cAMP and d2-labeled cAMP
quantityKind: log10 of IC50 (log10 of the value in nM)

{"molecule": "Cc1c(-c2ccc(=O)n(Cc3ccc(F)cc3F)n2)c2cc(Cl)ccc2n1CC(=O)O", "targetUnderTest": "CRTH2 (Homo sapiens)", "quantityKind": "log10 of IC50", "observedResult": 1.00}
{"molecule": "Cc1c(-c2ccc(=O)n(Cc3cccnc3)c2)c2cc(F)ccc2n1CC(=O)O", "targetUnderTest": "CRTH2 (Homo sapiens)", "quantityKind": "log10 of IC50", "observedResult": 1.51}
{"molecule": "Cc1c(-c2nn(Cc3ccc(Cl)cc3)c(=O)c3ccccc23)c2cc(Cl)ccc2n1CC(=O)O", "targetUnderTest": "CRTH2 (Homo sapiens)", "quantityKind": "log10 of IC50", "observedResult": 1.18}
{"molecule": "Cc1c(-c2ccc(=O)n(Cc3cc(F)c(F)cc3F)c2)c2ccccc2n1CC(=O)O", "targetUnderTest": "CRTH2 (Homo sapiens)", "quantityKind": "log10 of IC50", "observedResult": 1.04}
{"molecule": "Cc1c(Cc2ccc(=O)n(Cc3cccc(F)c3)c2)c2cc(F)ccc2n1CC(=O)O", "targetUnderTest": "CRTH2 (Homo sapiens)", "quantityKind": "log10 of IC50", "observedResult": 0.60}
{"molecule": "Cc1c(-c2nn(CCOc3ccccc3)c(=O)c3ccccc23)c2ccccc2n1CC(=O)O", "targetUnderTest": "CRTH2 (Homo sapiens)", "quantityKind": "log10 of IC50", "observedResult": 0.78}
{"molecule": "Cc1c(-c2ccc(=O)n(Cc3ccc(F)cc3)c2)c2cc(F)ccc2n1CC(=O)O", "targetUnderTest": "CRTH2 (Homo sapiens)", "quantityKind": "log10 of IC50", "observedResult": 0.78}
{"molecule": "COc1ccc2c(c1)c(-c1nn(C(C)C)c(=O)c3ccccc13)c(C)n2CC(=O)O", "targetUnderTest": "CRTH2 (Homo sapiens)", "quantityKind": "log10 of IC50", "observedResult": 2.04}
{"molecule": "Cc1c(Cc2ccc(=O)n(Cc3ccccc3)n2)c2cc(F)ccc2n1CC(=O)O", "targetUnderTest": "CRTH2 (Homo sapiens)", "quantityKind": "log10 of IC50", "observedResult": 1.00}
{"molecule": "Cc1c(-c2ccc(=O)n(Cc3cccc(F)c3F)c2)c2cc(F)ccc2n1CC(=O)O", "targetUnderTest": "CRTH2 (Homo sapiens)", "quantityKind": "log10 of IC50", "observedResult": 0.00}
{"molecule": "Cc1c(-c2nn(Cc3nnc[nH]3)c(=O)c3ccccc23)c2cc(Cl)ccc2n1CC(=O)O [Example 259a]", "targetUnderTest": "CRTH2 (Homo sapiens)", "quantityKind": "log10 of IC50", "observedResult": 1.79}
{"molecule": "Cc1c(-c2cn(Cc3ccccc3)c(=O)c3ccccc23)c2cc(F)ccc2n1CC(=O)O", "targetUnderTest": "CRTH2 (Homo sapiens)", "quantityKind": "log10 of IC50", "observedResult": 1.18}
{"molecule": "Cc1c(-c2ccc(=O)n(Cc3ccccc3)c2)c2cc(F)ccc2n1CC(=O)O", "targetUnderTest": "CRTH2 (Homo sapiens)", "quantityKind": "log10 of IC50", "observedResult": 0.70}
{"molecule": "Cc1c(-c2ccc(=O)n(CC(C)(C)Oc3ccccc3)n2)c2cc(F)ccc2n1CC(=O)O", "targetUnderTest": "CRTH2 (Homo sapiens)", "quantityKind": "log10 of IC50", "observedResult": 2.37}
{"molecule": "Cc1c(-c2ccc(=O)n(Cc3ccc(S(C)(=O)=O)cc3)n2)c2cc(Cl)ccc2n1CC(=O)O", "targetUnderTest": "CRTH2 (Homo sapiens)", "quantityKind": "log10 of IC50", "observedResult": 2.16}
{"molecule": "Cc1c(-c2nn(Cc3ccccc3)c(=O)c3ccccc23)c2cc(Cl)cc(Cl)c2n1CC(=O)O", "targetUnderTest": "CRTH2 (Homo sapiens)", "quantityKind": "log10 of IC50", "observedResult": 2.77}
{"molecule": "Cc1c(Cc2ccc(=O)n(Cc3cc(F)cc(F)c3)c2)c2ccccc2n1CC(=O)O", "targetUnderTest": "CRTH2 (Homo sapiens)", "quantityKind": "log10 of IC50", "observedResult": 1.81}
{"molecule": "CCn1nc(-c2c(C)n(CC(=O)O)c3ccccc23)c2ccccc2c1=O", "targetUnderTest": "CRTH2 (Homo sapiens)", "quantityKind": "log10 of IC50", "observedResult": 2.24}
{"molecule": "Cc1c(CC2=NN(Cc3ccccc3)C(=O)CC2)c2cc(F)ccc2n1CC(=O)O", "targetUnderTest": "CRTH2 (Homo sapiens)", "quantityKind": "log10 of IC50", "observedResult": 0.30}
{"molecule": "Cc1c(Cc2cn(Cc3ccccc3)c(=O)c3ccccc23)c2cc(F)ccc2n1CC(=O)O", "targetUnderTest": "CRTH2 (Homo sapiens)", "quantityKind": "log10 of IC50", "observedResult": 1.79}
{"molecule": "Cc1c(-c2nn(Cc3ccc(F)cc3F)c(=O)c3ccccc23)c2cc(F)ccc2n1CC(=O)O", "targetUnderTest": "CRTH2 (Homo sapiens)", "quantityKind": "log10 of IC50", "observedResult": 0.95}
{"molecule": "COC(F)(F)Cn1cc(-c2c(C)n(CC(=O)O)c3ccccc23)c2ccccc2c1=O", "targetUnderTest": "CRTH2 (Homo sapiens)", "quantityKind": "log10 of IC50", "observedResult": 0.95}
{"molecule": "Cc1c(-c2nn(Cc3ccccc3)c(=O)c3ccccc23)c2cc(F)ccc2n1CC(=O)O", "targetUnderTest": "CRTH2 (Homo sapiens)", "quantityKind": "log10 of IC50", "observedResult": 1.08}
{"molecule": "Cc1c(-c2nn(Cc3ncnn3-c3ccccc3)c(=O)c3ccccc23)c2cc(F)ccc2n1CC(=O)O", "targetUnderTest": "CRTH2 (Homo sapiens)", "quantityKind": "log10 of IC50", "observedResult": 1.04}
{"molecule": "Cc1c(-c2cn(CC(F)(F)F)c(=O)c3ccccc23)c2cc(F)ccc2n1CC(=O)O", "targetUnderTest": "CRTH2 (Homo sapiens)", "quantityKind": "log10 of IC50", "observedResult": 0.60}
{"molecule": "Cc1c(-c2nn(Cc3nc4cc(C(F)(F)F)ccc4s3)c(=O)c3ccccc23)c2cc(Cl)ccc2n1CC(=O)O", "targetUnderTest": "CRTH2 (Homo sapiens)", "quantityKind": "log10 of IC50", "observedResult": 1.91}
{"molecule": "Cc1c(-c2nn(CC(N)=O)c(=O)c3ccccc23)c2cc(F)ccc2n1CC(=O)O", "targetUnderTest": "CRTH2 (Homo sapiens)", "quantityKind": "log10 of IC50", "observedResult": 1.04}
{"molecule": "Cc1c(Cc2ccc(=O)n(Cc3cc(F)c(F)cc3F)n2)c2cc(F)ccc2n1CC(=O)O", "targetUnderTest": "CRTH2 (Homo sapiens)", "quantityKind": "log10 of IC50", "observedResult": 0.90}
{"molecule": "Cc1c(-c2nn(Cc3ccc(Cl)c(F)c3)c(=O)c3ccccc23)c2cc(Cl)ccc2n1CC(=O)O", "targetUnderTest": "CRTH2 (Homo sapiens)", "quantityKind": "log10 of IC50", "observedResult": 1.26}
{"molecule": "Cc1cc(Cn2nc(-c3c(C)n(CC(=O)O)c4ccc(Cl)cc34)c3ccccc3c2=O)c2ccccc2n1", "targetUnderTest": "CRTH2 (Homo sapiens)", "quantityKind": "log10 of IC50", "observedResult": 1.00}
{"molecule": "Cc1c(-c2ccc(=O)n(CCc3ccccc3)n2)c2ccccc2n1CC(=O)O", "targetUnderTest": "CRTH2 (Homo sapiens)", "quantityKind": "log10 of IC50", "observedResult": 2.17}
{"molecule": "Cc1c(-c2ccc(=O)n(Cc3cccc(F)c3F)c2)c2ccccc2n1CC(=O)O", "targetUnderTest": "CRTH2 (Homo sapiens)", "quantityKind": "log10 of IC50", "observedResult": 1.18}
